test: Approximate solubility of Compound I-1 (amorphous) in different solvents (manual dilution, visual observation); format: physicochemical; settings: Ethyl acetate, ambient laboratory temperature
Residues, ends and D or L forms follow the SMILES beside them. *: point of attachment. Palmitoyl = CCCCCCCCCCCCCCCC(=O)*
Assay Readout: solubility

Q: Consider the molecule CCCCCCCCCCCCCCCC(=O)N1CCC[C@H]1C(=O)N1CCC[C@H]1C(=O)NCC(=O)N[C@@H](Cc1ccc(O)cc1)C(=O)[O-].[Na+] [Compound I-1 (Amorphous)] (Palmitoyl-PPGY-OH) and give its measured solubility.
A: < 1000 µg/mL

----------
assay: Approximate solubility of Compound I-1-Acid in different solvents (manual dilution, visual observation); format: physicochemical; conditions: 1,4-Dioxane; room temperature
Residues, ends and D or L forms follow the SMILES beside them. *: point of attachment. Palmitoyl = CCCCCCCCCCCCCCCC(=O)*
Assay Readout: solubility

Q: Consider the molecule CCCCCCCCCCCCCCCC(=O)N1CCC[C@H]1C(=O)N1CCC[C@H]1C(=O)NCC(=O)N[C@@H](Cc1ccc(O)cc1)C(=O)O [Compound I-1-Acid] (Palmitoyl-PPGY-OH) and give its measured solubility.
A: < 1000 µg/mL

Values compiled from patent US11739120B2.
